Source listed as the supplement of paper PMC9732359.

Recorded protein stability index for the following sequences
assay: protein stability index of a GFP-peptide fusion (yeast GPS) (PSI 1-4); higher = more stable; sorted into four equal gates, so the index is relative within each strain; settings: doa10∆
ASSAY_ENDPOINT: protein stability index

>>> print(df.to_string())
                     sequence_record           assay_endpoint  value_measured
 0        SQVFGVARIYASFNDTF [RPS14A]  protein stability index            2.05
 1          NFEATKKSVLKQVQDFE [COR1]  protein stability index            2.76
 2          ELNSSEDILEDMNSNLQ [SMC1]  protein stability index            3.38
 3          LLRALKTNEESAKMILL [PRP8]  protein stability index            3.05
 4          LQKAVRGHVLQFEWHQN [SNF2]  protein stability index            1.27
 5          YDTTPLLDTNSLEENAM [SKI6]  protein stability index            3.08
 6          TITDLIEQGIPKHSYLS [SIR4]  protein stability index            3.05
 7          SNFTSIIGPNGSGKSNM [SMC1]  protein stability index            3.33
 8          YGTRPLVLPPVVTSSVA [SNF2]  protein stability index            2.04
 9          SNYAASNSMDRSSSASN [SWI1]  protein stability index            2.79
10  ELQIFKTANSSSDAFEK [YIL149C/MLP2]  protein stability index            2.44
11          AIQLDYSTANEYIIAAI [RPN3]  protein stability index            2.24
12  NNEKVVQYLRSVQDLGG [YML031W/NDC1]  protein stability index             3.1
13          FTNRIPSKTPEVYMRYR [SWI3]  protein stability index            2.08
14          NVLKAPFIKSESKPFSS [SIR4]  protein stability index            2.65
15  EFEKKLQETLNKSTSSE [YIL149C/MLP2]  protein stability index            2.95
16         MALKFVSIKFTNAAFPF [ECM29]  protein stability index            2.09
17          MTLNRKCVVIHNGSHRT [ARP7]  protein stability index            2.59
18          FTNLGIIVQYLTKFRQK [RGR1]  protein stability index            2.46
19          RAGVSQVLNRYTYSSTL [RPB2]  protein stability index            2.96
20         AAGANVDNVWADVYAKA [RPP1B]  protein stability index             3.2
21          LTEQIRELREVIELPLK [RPT4]  protein stability index            2.69
22          NTTVISDKQRRLLAKDA [DIS3]  protein stability index            2.37
23          ESQQQDESLKDEATVPN [SWI3]  protein stability index            3.19
24          SKISFIDEDKLYPSFKP [SSN2]  protein stability index            2.96
25  LNELKAIKDKLEQDLHF [YIL149C/MLP2]  protein stability index               3
26  IATGCKDGRIRIFKITE [YGL100W/SEH1]  protein stability index            2.22
